Target: T1, human IL-17B (R&D Systems, ref: 1248-IB/CF) (UniProt Q9UHF5 21-180)
T1 chain: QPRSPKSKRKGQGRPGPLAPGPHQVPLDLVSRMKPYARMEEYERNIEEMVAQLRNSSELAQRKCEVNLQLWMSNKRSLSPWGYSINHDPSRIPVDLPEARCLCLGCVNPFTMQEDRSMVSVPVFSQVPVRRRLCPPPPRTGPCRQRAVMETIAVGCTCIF
Experiment: ELISA
Measure: EC50
Respond with a number, then the unit of measure.

Solved entries:
Antibody 21H6 (antibody, V domains shown, Mouse monoclonal antibody directed against human IL-17B; also called mAb 21H6) VH: QVTLKESGPGILQPSQTLSLTCSFSGFSLSTFGMGVGWIRQPSGKGLEWLAHIWWDDDKYYNPALKGRLTISKDTSKNQVFLKIANVDTADTATYFCARIEDALDYWGQGTSVTVSS VL: DIVMTQSPATLSVTPGDRVSLSCRASQNISDYLHWYQQKSHESPRLLIKYTSQSISGIPSRFSGSGSGSDFTLSINSVEPEDVGVYYCQNGHSFPFTFGSGTKLEIK :: 2.28 ng/mL
Antibody 12F9 (antibody, V domains shown, Mouse monoclonal antibody directed against human IL-17B; also called mAb 12F9) VH: QVQLQQSGPELVKPGASVKISCKASGYTFTDYFINWVRQRPGQGLEWIGWIFPGSGSTYYHEKFKGKATLTVDKSSSTAYMLLSSLTSEDSAVYFCARTLYGNWYFDVWGTGTTVTVSS VL: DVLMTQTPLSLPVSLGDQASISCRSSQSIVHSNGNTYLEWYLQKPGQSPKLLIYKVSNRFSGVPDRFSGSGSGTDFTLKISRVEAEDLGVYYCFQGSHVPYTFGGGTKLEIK :: 13.7 ng/mL
Antibody 13H5 (antibody, V domains shown, Mouse monoclonal antibody directed against human IL-17B; also called mAb 13H5) VH: QVTLKESGPGILQPSQTLSLTCSFSGFSLSTFGMGVGWIRQPSGKGLEWLAHIWWDDDKYYNPALKSRLTISKDTSKNQVFLKIANVDTADTATYYCARMNDGYLYYWGQGTSVTVSS VL: QIVLTQSPAIMSASPGEKVTMTCSASSSVSYMYWYQQKPGSSPRLLIYDTSNLASGVPVRFSGSGSGTSYSLTISRMEAEDAATYYCQQWSSYPFTFGSGTKLEIK :: 6.64 ng/mL

Value of measured EC50 for the entry Antibody 18G9 (antibody, V domains shown, Mouse monoclonal antibody directed against human IL-17B; also called mAb 18G9; 18G9a) VH: QITLKESGPGILKPSQTLSLTCSFSGFSLSTSGMGVGWIRQPSGKGLEWLAHIWWDDDKYYNPSLKSQLTISKDTSRNQVFLRITSVDTADTATYYCARRTQGYFDYWGQGTTLTVSS VL: DILMTQSPASLAVSLGQRATISCKASQSVDYDGDSYMNWYQQKPGQPPKLLIYAASNLESGIPARFSGSGSGTDFTLNIHPVEEEDAATYYCQQSNEDPLTFGAGTKLELK : 6.88 ng/mL
